Listed compounds paired with reported pEC50
System: HCMV Strain AD169 in MRC-5 cells
assay-method-text: Viral qPCR assay HCMV (V0/V1, V2/V3), EC50
Type: cell-based
measurement-parameters: Human betaherpesvirus 5, AD169, MRC5, viral qPCR assay of Example 191; read-out: HCMV Cell (EC50)
pEC50: −log10 of the molar value.
property: pEC50

In [3]: df
Out[3]:
                                    compound             target_or_test_system  experimental_result
 0  CC(=O)N1CCC(Oc2cc(C(=O)NCc3ccc(Cl)cc3)ncc2-c2ccsn2)CC1  HCMV Strain AD169 in MRC-5 cells                 5.83
 1  O=C(NCc1ccc(Cl)cc1)c1cc(O[C@H]2CCN3C(=O)OC[C@@H]3C2)c(N2CCOCC2)cn1  HCMV Strain AD169 in MRC-5 cells                 6.10
 2  COCCn1cc(-c2cnc(C(=O)NCc3ccc(Cl)cc3)cc2O[C@H]2CCN3C(=O)OC[C@@H]3C2)cn1  HCMV Strain AD169 in MRC-5 cells                 6.93
 3  O=C(NCc1ccc(Cl)cc1)c1cc(O[C@H]2CCN3C(=O)OC[C@@H]3C2)c(C2CC(F)(F)C2)cn1  HCMV Strain AD169 in MRC-5 cells                 6.07
 4  COC1CN(c2cnc(C(=O)NCc3ccc(Cl)cc3)cc2O[C@H]2CCN3C(=O)OC[C@@H]3C2)C1  HCMV Strain AD169 in MRC-5 cells                 6.68
 5  O=C(NCc1ccc(Cl)cc1Cl)c1cc(O[C@H]2CCN3C(=O)OC[C@@H]3C2)c(-c2cnn(C(F)F)c2)cn1  HCMV Strain AD169 in MRC-5 cells                 6.05
 6  CC(=O)N1CCC(Oc2cc(C(=O)NCc3ccc(Cl)cc3)ncc2/C=C/CO)CC1  HCMV Strain AD169 in MRC-5 cells                 5.75
 7  CC(C)n1cc(-c2cnc(C(=O)NCc3ccc(Cl)cc3)cc2O[C@H]2CCN3C(=O)OC[C@@H]3C2)cn1  HCMV Strain AD169 in MRC-5 cells                 6.55
 8  CC(=O)N1CCC(Oc2cc(C(=O)NCc3ccc(Cl)cc3)ncc2-c2cc(C)ns2)CC1  HCMV Strain AD169 in MRC-5 cells                 6.74
 9  CC(C)(N)C1CCN(c2cnc(C(=O)NCc3ccc(Cl)cc3)cc2O[C@H]2CCN3C(=O)OC[C@@H]3C2)C1 (stereo partly shown)  HCMV Strain AD169 in MRC-5 cells                 6.13
10  Cn1cc(-c2cnc(C(=O)NCc3ccc(Cl)cc3F)cc2O[C@H]2CCN3C(=O)OC[C@@H]3C2)cn1  HCMV Strain AD169 in MRC-5 cells                 6.99
11  Cc1nsc(-c2cnc(C(=O)NCc3ccc(Cl)cc3)cc2O[C@H]2CCN3C(=O)OC[C@@H]3C2)n1  HCMV Strain AD169 in MRC-5 cells                 7.06
12  CC(C)CCn1cc(-c2cnc(C(=O)NCc3ccc(Cl)cc3)cc2O[C@H]2CCN3C(=O)OC[C@@H]3C2)cn1 (racemic)  HCMV Strain AD169 in MRC-5 cells                 6.24
13  CO[C@H]1CN(Cc2cnc(C(=O)NCc3ccc(Cl)cc3)cc2O[C@H]2CCN3C(=O)OC[C@@H]3C2)[C@@H]1C (mixture of isomers)  HCMV Strain AD169 in MRC-5 cells                 6.24
14  CC(C)(O)C1CCN(c2cnc(C(=O)NCc3ccc(Cl)cc3)cc2O[C@H]2CCN3C(=O)OC[C@@H]3C2)C1 (single isomer, unassigned)  HCMV Strain AD169 in MRC-5 cells                 6.44
15  O=C(NCc1ccc(Cl)cc1F)c1cc(O[C@H]2CCN3C(=O)OC[C@@H]3C2)c(-c2cnn(C(F)F)c2)cn1  HCMV Strain AD169 in MRC-5 cells                 6.36
16  O=C(NCc1ccc(Cl)cc1)c1cc(O[C@H]2CCN3C(=O)OC[C@@H]3C2)c(-c2cnc(CO)s2)cn1  HCMV Strain AD169 in MRC-5 cells                 7.16
17  N#Cc1cnc(C(=O)NCc2ccc(Cl)cc2)cc1O[C@H]1CCN2C(=O)OC[C@@H]2C1  HCMV Strain AD169 in MRC-5 cells                 6.46
18  Cc1cnn(-c2cnc(C(=O)NCc3ccc(Cl)cc3)cc2O[C@H]2CCN3C(=O)OC[C@@H]3C2)c1  HCMV Strain AD169 in MRC-5 cells                 5.88
19  O=C(OCN(Cc1ccc(Cl)cc1)C(=O)c1cc(O[C@H]2CCN3C(=O)OC[C@@H]3C2)c(-c2cnn(C(F)F)c2)cn1)C1CCOCC1  HCMV Strain AD169 in MRC-5 cells                 6.83
20  O=C(NCc1ccc(Cl)cc1)c1cc(O[C@H]2CCN3C(=O)CCC[C@@H]3C2)c(-c2cnn(C(F)F)c2)cn1 (single isomer, unassigned)  HCMV Strain AD169 in MRC-5 cells                 5.88
21  CSc1cnc(C(=O)NCc2ccc(Cl)cc2)cc1O[C@H]1CCN2C(=O)OC[C@@H]2C1 [Compound 147a]  HCMV Strain AD169 in MRC-5 cells                 6.61
22  CC(=O)N1CCC(Oc2cc(C(=O)NCc3ccc(Cl)cc3)ncc2-c2cnc(C)s2)CC1  HCMV Strain AD169 in MRC-5 cells                 6.75
23  CC(=O)N1CCC(Oc2cc(C(=O)NCc3ccc(Cl)cc3)ncc2-c2nc(C)ns2)CC1  HCMV Strain AD169 in MRC-5 cells                 6.81
24  CC(=O)N1CCC(Oc2cc(C(=O)NCc3ccc(Cl)cc3)ncc2-c2cnc(C3CC3)o2)CC1  HCMV Strain AD169 in MRC-5 cells                 6.21
25  Cc1cnc(C(=O)NCc2ccc(Cl)cc2)cc1O[C@H]1CCN2C(=O)CC[C@@H]2C1  HCMV Strain AD169 in MRC-5 cells                 5.83
26  COC1CC(c2cnc(C(=O)NCc3ccc(Cl)cc3)cc2O[C@H]2CCN3C(=O)OC[C@@H]3C2)C1 (stereo partly shown)  HCMV Strain AD169 in MRC-5 cells                 6.45
27  CC(=O)N1CCC(Oc2cc(C(=O)NCc3ccc(Cl)cc3)[n+]([O-])cc2-c2cnn(C(F)F)c2)CC1  HCMV Strain AD169 in MRC-5 cells                 5.88
